Where do these numbers come from? They come from ChEMBL document CHEMBL4680243.

experiment: Selectivity index, ratio of MCC for HELF cells to EC50 for antiviral activity against Influenza A virus (A/PR 8/34 (H1N1)) infected in human Calu-3 cells; type: toxicity, cell-based; conditions: HELF cells (MCC) and Calu-3 cells (EC50), read-out: Selectivity Index
quantity kind: selectivity ratio

Reported selectivity ratio ( COC(=O)C[C@H](NC(=O)OC(C)(C)C)C(=O)N(Cc1ccc(F)cc1)C1(C(=O)NCc2ccccc2)CCN(Cc2ccccc2)CC1 ) = ≥ 30

---

assay: Cytotoxicity against MDCK cells assessed as reduction in cell viability measured after 72 hrs by MTS assay; format: cell-based, Canis lupus familiaris; conditions: dog
Threshold-based label: CC50 at 72 h under 50 µM gives TRUE, CC50 at 72 h not under 50 µM gives FALSE.

>>> answer_label("COC(=O)C[C@H](NC(=O)OC(C)(C)C)C(=O)N(C)C1(C(=O)NCc2ccccc2)CCN(Cc2ccccc2)CC1")
"TRUE"

Ask | Field: below-cutoff. Rule: recorded CC50 at 72 h strictly less than 50 µM. Subject: COC(=O)C[C@H](NC(=O)OC(C)(C)C)C(=O)NC1(C(=O)NCc2ccccc2)CCN(Cc2ccccc2)CC1
Reply | FALSE

Ask | Field: below-cutoff. Rule: recorded CC50 at 72 h strictly less than 50 µM. Subject: COC(=O)C[C@H](NC(=O)OCc1ccccc1)C(=O)N(C1CC1)C1(C(=O)NCc2ccccc2)CCN(Cc2ccccc2)CC1
Reply | TRUE

Ask | Field: below-cutoff. Rule: recorded CC50 at 72 h strictly less than 50 µM. Subject: COC(=O)C[C@H](NC(=O)OC(C)(C)C)C(=O)N(Cc1ccccc1F)C1(C(=O)NCc2ccccc2)CCN(Cc2ccccc2)CC1
Reply | FALSE

Ask | Field: below-cutoff. Rule: recorded CC50 at 72 h strictly less than 50 µM. Subject: NC(=O)c1ncn([C@@H]2O[C@H](CO)[C@@H](O)[C@H]2O)n1
Reply | FALSE

Ask | Field: below-cutoff. Rule: recorded CC50 at 72 h strictly less than 50 µM. Subject: C[C@H](NC(=O)OC(C)(C)C)C(=O)N(Cc1ccc(F)cc1)C1(C(=O)NCc2ccccc2)CCN(Cc2ccccc2)CC1
Reply | FALSE

Ask | Field: below-cutoff. Rule: recorded CC50 at 72 h strictly less than 50 µM. Subject: CC[C@H](C)[C@H](NC(=O)OCc1ccccc1)C(=O)N(C1CC1)C1(C(=O)NCc2ccccc2)CCN(Cc2ccccc2)CC1
Reply | FALSE

Ask | Field: below-cutoff. Rule: recorded CC50 at 72 h strictly less than 50 µM. Subject: COC(=O)C[C@H](NC(=O)OC(C)(C)C)C(=O)N(Cc1ccc(C)cc1)C1(C(=O)NCc2ccccc2)CCN(Cc2ccccc2)CC1
Reply | FALSE

Ask | Field: below-cutoff. Rule: recorded CC50 at 72 h strictly less than 50 µM. Subject: COC(=O)C[C@H](NC(=O)OC(C)(C)C)C(=O)N(Cc1ccc(F)cc1)C1(C(=O)NCc2ccccc2)CCN(C2CCCCC2)CC1
Reply | TRUE

---

test system: Influenza A virus; test: Antiviral activity against Influenza A virus (A/PR 8/34 (H1N1)) infected in human Calu-3 cells assessed as reduction in virus-induced cytopathic effect measured after 72 hrs by MTS assay; type: functional, organism-based; details: A/Puerto Rico/8/1934(H1N1), Calu-3, 72 h
quantity kind: pEC50
The scale used: pEC50 is minus the common logarithm of the concentration in molar units.

Reported pEC50 ( COC(=O)C[C@H](NC(=O)OC(C)(C)C)C(=O)N(Cc1ccc(F)cc1)C1(C(=O)NCc2ccccc2)CCN(Cc2ccccc2)CC1 ) = 5.52
